B1: Twister Ribozyme (parent)
chain: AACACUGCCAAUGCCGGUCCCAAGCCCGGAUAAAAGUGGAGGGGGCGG

- Variants of: B1
- TEST_SUMMARY: self-cleavage, relative activity (ratio to wild type); higher = more cleavage; co-transcriptional
Kindly return yes if reported self-cleavage is no lower than 0.2; return no if it is lower.

[
  {
    "MUTANT_LABEL": "C8U G39U",
    "CLASS": "no"
  },
  {
    "MUTANT_LABEL": "G41C G47C",
    "CLASS": "no"
  },
  {
    "MUTANT_LABEL": "G13U C46U",
    "CLASS": "yes"
  },
  {
    "MUTANT_LABEL": "C25U A40C",
    "CLASS": "no"
  },
  {
    "MUTANT_LABEL": "C25G G42C",
    "CLASS": "no"
  },
  {
    "MUTANT_LABEL": "C19G G41U",
    "CLASS": "no"
  },
  {
    "MUTANT_LABEL": "C21A C27U",
    "CLASS": "no"
  },
  {
    "MUTANT_LABEL": "C20G A30U",
    "CLASS": "no"
  },
  {
    "MUTANT_LABEL": "C19G G24C",
    "CLASS": "no"
  },
  {
    "MUTANT_LABEL": "A2C G41U",
    "CLASS": "no"
  },
  {
    "MUTANT_LABEL": "C14U C26A",
    "CLASS": "yes"
  },
  {
    "MUTANT_LABEL": "C3A C46U",
    "CLASS": "yes"
  },
  {
    "MUTANT_LABEL": "A4C C19U",
    "CLASS": "no"
  },
  {
    "MUTANT_LABEL": "G7A C25U",
    "CLASS": "yes"
  },
  {
    "MUTANT_LABEL": "G7U C14A",
    "CLASS": "no"
  },
  {
    "MUTANT_LABEL": "A1U U18A",
    "CLASS": "no"
  },
  {
    "MUTANT_LABEL": "G24U C27G",
    "CLASS": "no"
  },
  {
    "MUTANT_LABEL": "C14G U37A",
    "CLASS": "no"
  },
  {
    "MUTANT_LABEL": "C20G A33G",
    "CLASS": "no"
  },
  {
    "MUTANT_LABEL": "A23U G42A",
    "CLASS": "no"
  },
  {
    "MUTANT_LABEL": "A30U G48U",
    "CLASS": "yes"
  },
  {
    "MUTANT_LABEL": "C26G A34G",
    "CLASS": "no"
  },
  {
    "MUTANT_LABEL": "U6G U31G",
    "CLASS": "yes"
  },
  {
    "MUTANT_LABEL": "A22C A40C",
    "CLASS": "no"
  },
  {
    "MUTANT_LABEL": "C19G A34G",
    "CLASS": "no"
  },
  {
    "MUTANT_LABEL": "A1G G16A",
    "CLASS": "yes"
  },
  {
    "MUTANT_LABEL": "G36U C46G",
    "CLASS": "yes"
  },
  {
    "MUTANT_LABEL": "A1G C14U",
    "CLASS": "yes"
  },
  {
    "MUTANT_LABEL": "A23U G42C",
    "CLASS": "no"
  },
  {
    "MUTANT_LABEL": "A11G G16A",
    "CLASS": "yes"
  },
  {
    "MUTANT_LABEL": "C20G C25A",
    "CLASS": "no"
  },
  {
    "MUTANT_LABEL": "G28U G43U",
    "CLASS": "yes"
  },
  {
    "MUTANT_LABEL": "G16A A22G",
    "CLASS": "no"
  },
  {
    "MUTANT_LABEL": "G7A C20A",
    "CLASS": "no"
  },
  {
    "MUTANT_LABEL": "U18A G48C",
    "CLASS": "yes"
  },
  {
    "MUTANT_LABEL": "A1C G41A",
    "CLASS": "no"
  },
  {
    "MUTANT_LABEL": "G29C G42A",
    "CLASS": "no"
  },
  {
    "MUTANT_LABEL": "G13U G17C",
    "CLASS": "no"
  },
  {
    "MUTANT_LABEL": "C15A A34U",
    "CLASS": "yes"
  },
  {
    "MUTANT_LABEL": "U31C G42U",
    "CLASS": "yes"
  },
  {
    "MUTANT_LABEL": "G36A A40G",
    "CLASS": "no"
  },
  {
    "MUTANT_LABEL": "U6G A22G",
    "CLASS": "no"
  },
  {
    "MUTANT_LABEL": "U12C C25A",
    "CLASS": "no"
  },
  {
    "MUTANT_LABEL": "C27A A40U",
    "CLASS": "no"
  },
  {
    "MUTANT_LABEL": "G17A A35C",
    "CLASS": "yes"
  },
  {
    "MUTANT_LABEL": "G28C U31G",
    "CLASS": "yes"
  },
  {
    "MUTANT_LABEL": "G17C A30U",
    "CLASS": "no"
  },
  {
    "MUTANT_LABEL": "C20U G28C",
    "CLASS": "yes"
  },
  {
    "MUTANT_LABEL": "A4C A30G",
    "CLASS": "no"
  },
  {
    "MUTANT_LABEL": "G45C G47C",
    "CLASS": "yes"
  },
  {
    "MUTANT_LABEL": "U18G G48U",
    "CLASS": "no"
  },
  {
    "MUTANT_LABEL": "U6G U37A",
    "CLASS": "no"
  },
  {
    "MUTANT_LABEL": "C27U G36A",
    "CLASS": "yes"
  },
  {
    "MUTANT_LABEL": "G45A G48C",
    "CLASS": "yes"
  },
  {
    "MUTANT_LABEL": "A2G G13U",
    "CLASS": "no"
  },
  {
    "MUTANT_LABEL": "C20A A32U",
    "CLASS": "no"
  },
  {
    "MUTANT_LABEL": "A11G A23C",
    "CLASS": "yes"
  },
  {
    "MUTANT_LABEL": "A4C G48U",
    "CLASS": "yes"
  },
  {
    "MUTANT_LABEL": "A11U G29U",
    "CLASS": "yes"
  },
  {
    "MUTANT_LABEL": "A1U A2G",
    "CLASS": "no"
  },
  {
    "MUTANT_LABEL": "A4G C5G",
    "CLASS": "yes"
  },
  {
    "MUTANT_LABEL": "C21U G45C",
    "CLASS": "no"
  },
  {
    "MUTANT_LABEL": "G13U G45U",
    "CLASS": "yes"
  },
  {
    "MUTANT_LABEL": "G7U G28U",
    "CLASS": "no"
  },
  {
    "MUTANT_LABEL": "C20G G44C",
    "CLASS": "no"
  },
  {
    "MUTANT_LABEL": "C3U A33G",
    "CLASS": "yes"
  },
  {
    "MUTANT_LABEL": "A32C U37A",
    "CLASS": "yes"
  },
  {
    "MUTANT_LABEL": "A4C G16C",
    "CLASS": "no"
  },
  {
    "MUTANT_LABEL": "G24A G36C",
    "CLASS": "no"
  },
  {
    "MUTANT_LABEL": "C26G G44A",
    "CLASS": "yes"
  },
  {
    "MUTANT_LABEL": "G7C G39U",
    "CLASS": "no"
  },
  {
    "MUTANT_LABEL": "A2U A33U",
    "CLASS": "yes"
  },
  {
    "MUTANT_LABEL": "C5U G38C",
    "CLASS": "yes"
  },
  {
    "MUTANT_LABEL": "G16U G24C",
    "CLASS": "no"
  },
  {
    "MUTANT_LABEL": "A34G G44A",
    "CLASS": "yes"
  },
  {
    "MUTANT_LABEL": "C25U G29A",
    "CLASS": "yes"
  },
  {
    "MUTANT_LABEL": "G45C G48U",
    "CLASS": "yes"
  },
  {
    "MUTANT_LABEL": "U12G A40C",
    "CLASS": "yes"
  },
  {
    "MUTANT_LABEL": "C25G G39A",
    "CLASS": "no"
  },
  {
    "MUTANT_LABEL": "U6G G43C",
    "CLASS": "no"
  },
  {
    "MUTANT_LABEL": "A22G G42C",
    "CLASS": "no"
  },
  {
    "MUTANT_LABEL": "C9G A35C",
    "CLASS": "yes"
  },
  {
    "MUTANT_LABEL": "G24A A40G",
    "CLASS": "no"
  },
  {
    "MUTANT_LABEL": "A2C A22G",
    "CLASS": "no"
  },
  {
    "MUTANT_LABEL": "A22U C27A",
    "CLASS": "no"
  },
  {
    "MUTANT_LABEL": "C9U C15G",
    "CLASS": "no"
  },
  {
    "MUTANT_LABEL": "C21A C26U",
    "CLASS": "no"
  },
  {
    "MUTANT_LABEL": "C15G G39A",
    "CLASS": "no"
  },
  {
    "MUTANT_LABEL": "A1U U37G",
    "CLASS": "no"
  },
  {
    "MUTANT_LABEL": "C3A C5G",
    "CLASS": "yes"
  },
  {
    "MUTANT_LABEL": "A2U A22G",
    "CLASS": "no"
  }
]

These entries and their values trace back to the RNAGym collection of RNA variant scans (doi:10.7554/elife.80360).
